# credit: patent US20210253718A1

Target: T1, FZD10 CRD (Homo sapiens, UniProt Q9ULW2)
T1 construct: 30-156; GPI anchor signal (C); expressed in transfected cells; host or cells: CHO cells, lentiviral pLenti-puro
T1 sequence (Q9ULW2 30-156): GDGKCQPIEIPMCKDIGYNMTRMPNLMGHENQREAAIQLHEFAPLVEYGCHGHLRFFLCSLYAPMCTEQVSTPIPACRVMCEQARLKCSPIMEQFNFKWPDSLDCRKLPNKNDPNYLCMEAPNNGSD
Assay: Immunofluorescence of anti-FZD5 Fab binding to CHO cells overexpressing Frizzled CRD
Parameters: key: −: no binding; +: very weak binder; ++: weak binder; +++: good binder; ++++: very good binder
readout-label: Immunofluorescence binding, Frizzled CRD overexpressed on CHO cells: FZD10

| molecule | result |
| --- | --- |
| Fab-2933: anti-FZD5 Fab with antibody variable region Fv-2933; CDR SEQ ID NOs: 35, 36, 72, 109, 148, 177 (antibody, V domains shown) VH: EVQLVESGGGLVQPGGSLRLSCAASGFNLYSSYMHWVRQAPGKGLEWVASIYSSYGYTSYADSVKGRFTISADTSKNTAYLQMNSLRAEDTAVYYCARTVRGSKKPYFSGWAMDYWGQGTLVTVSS VL: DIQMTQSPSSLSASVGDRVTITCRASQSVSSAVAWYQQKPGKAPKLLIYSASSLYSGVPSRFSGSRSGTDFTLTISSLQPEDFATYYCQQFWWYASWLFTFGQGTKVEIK | − |
